Each entry below carries its measured AC50, system: Histamine H3 receptor (Homo sapiens). Also: assay procedure not described here.
Sequence (Q9Y5N1 whole entry): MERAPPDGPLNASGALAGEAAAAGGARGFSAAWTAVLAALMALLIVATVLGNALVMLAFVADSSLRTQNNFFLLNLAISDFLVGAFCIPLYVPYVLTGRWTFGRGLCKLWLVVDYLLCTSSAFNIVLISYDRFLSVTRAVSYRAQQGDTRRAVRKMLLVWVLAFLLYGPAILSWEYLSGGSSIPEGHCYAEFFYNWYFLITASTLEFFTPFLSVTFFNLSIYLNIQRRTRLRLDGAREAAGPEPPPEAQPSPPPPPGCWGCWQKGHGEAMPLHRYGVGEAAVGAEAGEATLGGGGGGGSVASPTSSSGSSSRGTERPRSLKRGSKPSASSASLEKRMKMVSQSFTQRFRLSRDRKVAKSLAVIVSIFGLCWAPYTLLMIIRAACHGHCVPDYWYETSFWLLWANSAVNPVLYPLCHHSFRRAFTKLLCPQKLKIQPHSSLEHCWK
Assay Endpoint: AC50

• C[C@]12CCC(=O)C=C1CC[C@H]1[C@@H]3CC[C@](O)(C(=O)CO)[C@@]3(C)C[C@H](O)[C@@]12F = > 10 µM
• Nc1ccc(S(=O)(=O)Nc2ncccn2)cc1 = > 10 µM
• COc1ccc2c3c1O[C@H]1C(=O)CC[C@H]4[C@@H](C2)N(C)CC[C@]314 [HYDROCODONE] = > 10 µM
• COC(=O)c1ccc2c(c1)NC(=O)/C2=C(\Nc1ccc(N(C)C(=O)CN2CCN(C)CC2)cc1)c1ccccc1 = > 30 µM
• CC(C)/N=c1\cc2n(-c3ccc(Cl)cc3)c3ccccc3nc-2cc1Nc1ccc(Cl)cc1 = > 30 µM
• CCC(=O)c1ccc2c(c1)N(CC(C)N(C)C)c1ccccc1S2 (stereo not drawn) = > 10 µM
• O=C(O)c1nn(Cc2ccc(Cl)cc2Cl)c2ccccc12 = > 30 µM
• CC(C)(CO)c1cc2cc(NC(=O)C3(c4ccc5c(c4)OC(F)(F)O5)CC3)c(F)cc2n1C[C@@H](O)CO = > 30 µM

* * *

Parameter: AC50. Scope: all listed entries.
# Target Or Test System: 5-hydroxytryptamine receptor 1A (Homo sapiens, UniProt P08908); also: assay procedure not described here
# Sequence (P08908 whole entry): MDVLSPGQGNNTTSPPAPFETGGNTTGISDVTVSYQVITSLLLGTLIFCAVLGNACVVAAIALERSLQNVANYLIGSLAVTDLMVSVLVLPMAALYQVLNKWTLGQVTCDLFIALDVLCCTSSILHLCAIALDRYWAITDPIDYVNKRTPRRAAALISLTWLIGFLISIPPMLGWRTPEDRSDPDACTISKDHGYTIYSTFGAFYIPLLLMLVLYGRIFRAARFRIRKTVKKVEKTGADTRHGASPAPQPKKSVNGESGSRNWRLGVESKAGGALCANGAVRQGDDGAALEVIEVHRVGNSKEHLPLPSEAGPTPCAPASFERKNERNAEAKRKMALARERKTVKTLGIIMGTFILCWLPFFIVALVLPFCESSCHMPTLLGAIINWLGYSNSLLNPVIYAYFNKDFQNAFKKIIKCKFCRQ
# Format: functional, cell-based
Assay Endpoint: AC50

* Nc1nc(Cl)nc2c1ncn2[C@@H]1O[C@H](CO)[C@@H](O)[C@@H]1F | > 30 µM
* COc1nc(C)nc(Cl)c1N=C1NCCN1 | > 30 µM
* C=CC1=C(C(=O)O)N2C(=O)[C@@H](NC(=O)/C(=N\O)c3csc(N)n3)[C@H]2SC1 | > 10 µM
* Oc1cc(O)c2c(c1)O[C@H](c1ccc(O)c(O)c1)[C@@H](O)C2 | > 10 µM
* CCC1(C)CC(=O)NC1=O (centres undefined) [ETHOSUXIMIDE] | > 10 µM
* Cc1ccc(O)c([C@H](CCN(C(C)C)C(C)C)c2ccccc2)c1 | > 10 µM
* OCCOCCN1CCN(C(c2ccccc2)c2ccc(Cl)cc2)CC1 (centres undefined) [HYDROXYZINE] | > 10 µM
* Cc1ccc(-c2ncc(Cl)cc2-c2ccc(S(C)(=O)=O)cc2)cn1 | > 10 µM
* CC1(C)O[C@@H]2C[C@H]3[C@@H]4CCC5=CC(=O)C=C[C@]5(C)[C@@]4(F)[C@@H](O)C[C@]3(C)[C@]2(C(=O)CO)O1 [TRIAMCINOLONE ACETONIDE] | > 30 µM

* * *

// Beta-2 adrenergic receptor (Homo sapiens) AC50 records
Assay Endpoint: AC50

* CCc1ccc(C(=O)C(C)CN2CCCCC2)cc1 (stereo not given) | > 30 µM
* Nc1ccc(S(=O)(=O)Nc2ncccn2)cc1 | > 10 µM
* CCOc1cc2ncc(C#N)c(Nc3ccc(OCc4ccccn4)c(Cl)c3)c2cc1NC(=O)/C=C/CN(C)C | > 10 µM
* C[C@H](CS)C(=O)N1CCC[C@H]1C(=O)O | > 10 µM
* COc1ccc2c3c1O[C@H]1C(=O)CC[C@H]4[C@@H](C2)N(C)CC[C@]314 [HYDROCODONE] | > 10 µM

* * *

# Target Or Test System: 5-hydroxytryptamine receptor 2B (Homo sapiens); also: assay procedure not described here
# Sequence (P41595 whole entry): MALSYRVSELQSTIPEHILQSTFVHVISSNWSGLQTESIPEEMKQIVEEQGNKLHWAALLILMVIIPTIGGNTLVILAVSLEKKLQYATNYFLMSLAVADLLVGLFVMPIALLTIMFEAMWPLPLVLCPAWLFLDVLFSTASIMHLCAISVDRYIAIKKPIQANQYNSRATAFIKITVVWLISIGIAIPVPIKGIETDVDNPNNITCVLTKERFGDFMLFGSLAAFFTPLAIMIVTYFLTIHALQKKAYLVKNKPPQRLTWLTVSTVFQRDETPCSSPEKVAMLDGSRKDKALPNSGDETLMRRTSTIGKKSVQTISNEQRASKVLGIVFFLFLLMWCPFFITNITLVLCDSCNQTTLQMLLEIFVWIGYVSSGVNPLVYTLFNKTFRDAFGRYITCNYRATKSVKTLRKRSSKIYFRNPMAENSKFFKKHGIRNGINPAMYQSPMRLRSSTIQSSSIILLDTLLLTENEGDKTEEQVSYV
# Assay type: functional, cell-based
Each entry below lists one item and its recorded AC50 value.
Assay Endpoint: AC50

* CC(NC(C)(C)C)C(=O)c1cccc(Cl)c1 (stereo not drawn) | > 10 µM
* CCN(CC)Cc1nccn1-c1ccc([N+](=O)[O-])cc1C(=O)c1ccccc1Cl | > 30 µM
* CO/N=C(\C(=O)N[C@@H]1C(=O)N2C(C(=O)[O-])=C(C[n+]3ccc(N)n3CCO)CS[C@H]12)c1csc(N)n1 | > 30 µM
* CN(Cc1ccc(C(C)(C)C)cc1)Cc1cccc2ccccc12 | > 10 µM
* Cc1cnc(Nc2ccc(OCCN3CCCC3)cc2)nc1Nc1cccc(S(=O)(=O)NC(C)(C)C)c1 | > 10 µM
* OCCN(CCO)c1nc(N2CCCCC2)c2nc(N(CCO)CCO)nc(N3CCCCC3)c2n1 | 15 µM
* CC(=O)OCC1=C(C(=O)O)N2C(=O)[C@@H](NC(=O)Cc3cccs3)[C@H]2SC1 | > 30 µM
* CN(C)CCOCC(=O)NC12CC3CC(CC(C3)C1)C2 | > 30 µM

* * *

# Target Or Test System: Gamma-aminobutyric acid receptor subunit alpha-1/alpha-2/beta-2/gamma-2 (Homo sapiens, UniProt P14867+P18507+P47869+P47870); also: assay procedure not described here
# Sequence (P14867 whole entry): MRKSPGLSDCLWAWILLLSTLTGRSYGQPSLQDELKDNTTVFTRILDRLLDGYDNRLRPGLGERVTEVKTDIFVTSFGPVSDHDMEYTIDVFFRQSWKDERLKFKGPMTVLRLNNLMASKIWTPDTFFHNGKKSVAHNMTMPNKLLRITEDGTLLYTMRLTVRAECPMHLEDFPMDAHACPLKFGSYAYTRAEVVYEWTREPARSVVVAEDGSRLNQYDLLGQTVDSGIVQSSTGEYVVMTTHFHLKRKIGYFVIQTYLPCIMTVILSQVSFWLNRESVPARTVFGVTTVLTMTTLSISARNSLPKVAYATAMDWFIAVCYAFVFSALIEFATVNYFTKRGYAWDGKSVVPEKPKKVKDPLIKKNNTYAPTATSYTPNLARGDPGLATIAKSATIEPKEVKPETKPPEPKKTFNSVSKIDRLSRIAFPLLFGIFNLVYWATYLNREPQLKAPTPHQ
# Sequence (P47870 whole entry): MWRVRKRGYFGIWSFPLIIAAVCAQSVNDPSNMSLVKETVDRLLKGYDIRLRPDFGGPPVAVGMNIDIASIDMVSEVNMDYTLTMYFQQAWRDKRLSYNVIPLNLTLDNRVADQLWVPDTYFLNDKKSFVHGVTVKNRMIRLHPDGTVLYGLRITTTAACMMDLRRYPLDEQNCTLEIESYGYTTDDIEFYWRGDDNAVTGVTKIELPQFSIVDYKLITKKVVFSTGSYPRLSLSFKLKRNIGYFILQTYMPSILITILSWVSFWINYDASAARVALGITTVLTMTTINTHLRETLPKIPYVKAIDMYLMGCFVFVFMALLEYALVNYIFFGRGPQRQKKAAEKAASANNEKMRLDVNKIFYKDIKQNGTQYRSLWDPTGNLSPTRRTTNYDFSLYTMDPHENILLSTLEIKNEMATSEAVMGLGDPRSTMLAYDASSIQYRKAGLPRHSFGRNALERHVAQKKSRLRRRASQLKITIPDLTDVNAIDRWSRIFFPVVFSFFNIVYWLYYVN
# Sequence (P18507 whole entry): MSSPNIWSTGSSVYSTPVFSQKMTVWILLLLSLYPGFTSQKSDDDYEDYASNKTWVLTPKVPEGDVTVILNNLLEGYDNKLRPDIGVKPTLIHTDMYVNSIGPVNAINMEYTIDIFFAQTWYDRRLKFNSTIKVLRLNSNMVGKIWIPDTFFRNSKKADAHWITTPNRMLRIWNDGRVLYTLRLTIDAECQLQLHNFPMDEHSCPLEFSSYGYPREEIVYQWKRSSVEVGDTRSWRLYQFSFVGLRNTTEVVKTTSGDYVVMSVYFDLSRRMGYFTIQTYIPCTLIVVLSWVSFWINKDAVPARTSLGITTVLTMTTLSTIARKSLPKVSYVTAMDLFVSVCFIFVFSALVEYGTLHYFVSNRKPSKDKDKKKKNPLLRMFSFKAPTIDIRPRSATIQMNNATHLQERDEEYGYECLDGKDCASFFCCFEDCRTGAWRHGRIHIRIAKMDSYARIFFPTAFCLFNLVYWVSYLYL
# Sequence (P47869 whole entry): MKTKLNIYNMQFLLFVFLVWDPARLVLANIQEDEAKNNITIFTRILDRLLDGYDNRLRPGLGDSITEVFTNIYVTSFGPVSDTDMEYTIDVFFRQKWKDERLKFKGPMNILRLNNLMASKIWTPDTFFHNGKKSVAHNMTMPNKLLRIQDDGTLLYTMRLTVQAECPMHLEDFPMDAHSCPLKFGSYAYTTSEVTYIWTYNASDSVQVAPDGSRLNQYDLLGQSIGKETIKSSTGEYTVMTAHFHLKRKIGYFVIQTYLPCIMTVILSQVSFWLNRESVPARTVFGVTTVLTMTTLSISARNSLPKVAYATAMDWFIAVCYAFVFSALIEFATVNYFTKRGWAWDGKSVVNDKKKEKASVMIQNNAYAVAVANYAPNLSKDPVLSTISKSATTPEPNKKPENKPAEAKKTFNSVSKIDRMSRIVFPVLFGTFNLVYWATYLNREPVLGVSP
# Format: protein-complex assay
Reported AC50 values for a set of molecules
Assay Endpoint: AC50

• CC#CC(=O)N1CCC[C@H]1c1nc(-c2ccc(C(=O)Nc3ccccn3)cc2)c2c(N)nccn12 = > 30 µM
• C[C@@H]1O[C@@H](O[C@H]2C[C@@H](O)[C@]3(CO)[C@H]4[C@H](O)C[C@]5(C)[C@@H](C6=CC(=O)OC6)CC[C@]5(O)[C@@H]4CC[C@]3(O)C2)[C@H](O)[C@H](O)[C@H]1O = > 30 µM
• C[C@@H]1CN(c2c(F)c(N)c3c(=O)c(C(=O)O)cn(C4CC4)c3c2F)C[C@H](C)N1 = > 30 µM
• CC(=O)OCC(=O)[C@@]1(OC(C)=O)[C@@H](C)C[C@H]2[C@@H]3C[C@H](F)C4=CC(=O)C=C[C@]4(C)[C@@]3(F)[C@@H](O)C[C@@]21C [DIFLORASONE DIACETATE] = > 30 µM
• O=c1[nH]c(=O)n([C@H]2C[C@H](O)[C@@H](CO)O2)cc1/C=C/Br = > 30 µM
• C#C[C@]1(OC(C)=O)CC[C@H]2[C@@H]3CCC4=CC(=O)CC[C@@H]4[C@H]3CC[C@@]21C [NORETHINDRONE ACETATE] = > 10 µM
• O=C1[C@@H]2[C@H]3CC[C@H](C3)[C@@H]2C(=O)N1C[C@@H]1CCCC[C@H]1CN1CCN(c2nsc3ccccc23)CC1 = > 30 µM
• CN1CCCC(CC2c3ccccc3Sc3ccccc32)C1 (stereo unspecified) = > 30 µM
• Nc1ccn(C[C@@H](CO)OCP(=O)(O)O)c(=O)n1 = > 30 µM
• O=c1[nH]c2ccccc2n1CCN1CCN(c2cccc(C(F)(F)F)c2)CC1 = > 10 µM
• NC(=O)N/N=C/c1ccc([N+](=O)[O-])o1 = > 30 µM
• CC(C)Nc1cccnc1N1CCN(C(=O)c2cc3cc(NS(C)(=O)=O)ccc3[nH]2)CC1 = > 10 µM
• COc1ncnc(NS(=O)(=O)c2ccc(N)cc2)c1OC = > 30 µM
• COc1cc(C[C@@H]2NCCc3cc(O)c(O)cc32)cc(OC)c1OC = > 30 µM
• O=P1(N(CCCl)CCCl)NCCCO1 (stereo unspecified) [CYCLOPHOSPHAMIDE ANHYDROUS] = > 30 µM
• CN1CCN(C(c2ccccc2)c2ccc(Cl)cc2)CC1 (stereo unspecified) = > 30 µM

* * *

# Target Or Test System: Thromboxane A2 receptor (Homo sapiens); also: assay procedure not described here
# Sequence (P21731 whole entry): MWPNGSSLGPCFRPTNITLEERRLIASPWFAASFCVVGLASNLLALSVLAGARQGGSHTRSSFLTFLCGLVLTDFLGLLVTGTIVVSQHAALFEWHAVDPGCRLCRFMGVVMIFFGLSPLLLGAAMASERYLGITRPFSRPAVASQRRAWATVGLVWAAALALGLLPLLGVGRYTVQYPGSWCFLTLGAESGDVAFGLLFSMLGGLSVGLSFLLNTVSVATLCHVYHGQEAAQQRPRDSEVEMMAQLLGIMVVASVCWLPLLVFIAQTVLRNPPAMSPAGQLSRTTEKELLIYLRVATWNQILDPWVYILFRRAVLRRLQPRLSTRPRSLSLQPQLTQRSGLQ
Assay Endpoint: AC50

- CCC1(C)CC(=O)NC1=O (centres undefined) [ETHOSUXIMIDE]: > 10 µM
- COc1cc(N)cn[n+]1-c1ccccc1 [AMEZINIUM METILSULFATE]: > 30 µM
- CC(=O)SCC(Cc1ccccc1)C(=O)NCC(=O)OCc1ccccc1 (centres undefined) [RACECADOTRIL]: > 30 µM
- CC1(C)O[C@@H]2C[C@H]3[C@@H]4CCC5=CC(=O)C=C[C@]5(C)[C@@]4(F)[C@@H](O)C[C@]3(C)[C@]2(C(=O)CO)O1 [TRIAMCINOLONE ACETONIDE]: > 30 µM
- Nc1ccc(S(=O)(=O)Nc2ncccn2)cc1 [SULFADIAZINE]: > 10 µM
- CCOC(=O)Nc1ccc(NCc2ccc(F)cc2)nc1N [FLUPIRTINE]: 29 µM
- Nc1cc(N2CCCCC2)nc(N)[n+]1[O-] [MINOXIDIL]: > 30 µM
- NCCCCCC(=O)O [AMINOCAPROIC ACID]: > 10 µM
- CCCO[C@H]1[C@@H]([C@@H](COCc2ccc(Cl)cc2)OCc2ccc(Cl)cc2)OC(OCC)[C@@H]1O (some centres undefined) [CLOBENOSIDE]: > 30 µM

* * *

# Target Or Test System: Voltage-gated inwardly rectifying potassium channel KCNH2 (Homo sapiens, UniProt Q12809); also: assay procedure not described here
# Sequence (Q12809 whole entry): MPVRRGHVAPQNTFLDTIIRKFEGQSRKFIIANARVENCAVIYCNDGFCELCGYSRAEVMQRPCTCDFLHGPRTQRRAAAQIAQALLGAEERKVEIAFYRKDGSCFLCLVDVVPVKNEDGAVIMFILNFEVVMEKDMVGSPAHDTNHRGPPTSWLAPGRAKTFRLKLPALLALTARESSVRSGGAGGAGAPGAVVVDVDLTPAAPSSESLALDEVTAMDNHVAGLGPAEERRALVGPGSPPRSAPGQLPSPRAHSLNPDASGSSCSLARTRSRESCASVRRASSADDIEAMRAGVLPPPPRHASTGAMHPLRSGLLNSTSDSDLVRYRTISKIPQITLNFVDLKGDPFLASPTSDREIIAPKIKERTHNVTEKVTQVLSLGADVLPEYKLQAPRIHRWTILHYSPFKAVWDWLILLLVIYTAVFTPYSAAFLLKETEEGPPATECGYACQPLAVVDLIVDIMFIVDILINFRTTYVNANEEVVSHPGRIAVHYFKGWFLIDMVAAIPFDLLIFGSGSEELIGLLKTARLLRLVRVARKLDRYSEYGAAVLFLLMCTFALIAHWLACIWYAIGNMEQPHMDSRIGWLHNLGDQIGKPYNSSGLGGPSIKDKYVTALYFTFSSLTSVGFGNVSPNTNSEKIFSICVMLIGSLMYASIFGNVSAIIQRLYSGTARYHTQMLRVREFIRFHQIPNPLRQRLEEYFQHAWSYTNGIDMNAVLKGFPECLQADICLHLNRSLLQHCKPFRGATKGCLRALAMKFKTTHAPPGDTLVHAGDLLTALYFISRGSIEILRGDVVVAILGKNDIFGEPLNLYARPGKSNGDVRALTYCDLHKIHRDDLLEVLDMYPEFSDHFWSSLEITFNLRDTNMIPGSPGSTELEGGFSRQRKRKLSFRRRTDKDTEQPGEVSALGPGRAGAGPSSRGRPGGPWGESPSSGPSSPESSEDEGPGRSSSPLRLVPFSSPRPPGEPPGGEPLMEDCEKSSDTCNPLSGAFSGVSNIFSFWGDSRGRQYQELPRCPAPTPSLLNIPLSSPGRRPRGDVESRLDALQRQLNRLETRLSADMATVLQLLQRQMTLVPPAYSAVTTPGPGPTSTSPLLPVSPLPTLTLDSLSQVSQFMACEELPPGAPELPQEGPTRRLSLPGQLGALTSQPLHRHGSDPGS
# Assay type: functional
# Condition Summary: read-out: AC50; also: assay procedure not described here
Where a SMILES comes first, the peptide text is derived from it.
Assay Endpoint: AC50

• COc1cc(C(=O)NCc2ccc(OCCN(C)C)cc2)cc(OC)c1OC [TRIMETHOBENZAMIDE] = 7.1 µM
• CCOC(=O)Nc1ccc(NCc2ccc(F)cc2)nc1N [FLUPIRTINE] = 27 µM
• C[C@]12CCC(=O)C=C1C=C[C@@H]1[C@@H]2CC[C@@]2(C)[C@H]1CC[C@@]21CCC(=O)O1 [CANRENONE] = > 30 µM
• CN(C)CCc1c[nH]c2ccc(CS(=O)(=O)N3CCCC3)cc12 [ALMOTRIPTAN] = 15 µM
• CCC(=O)[C@@]1(C)[C@H](C)C[C@H]2[C@@H]3CCC4=CC(=O)C=C[C@]4(C)[C@H]3[C@@H](O)C[C@@]21C [RIMEXOLONE] = > 30 µM
• CN(C)CCOC(c1ccc(Cl)cc1)c1ccccn1 (stereo not drawn) [CARBINOXAMINE] = 1.3 µM
• C[C@H](N)C(=O)N[C@@H](CCC(N)=O)C(=O)O [ALANYL GLUTAMINE] (H-Ala-Gln-OH) = > 30 µM
• C[C@@H]1O[C@@H](O[C@H]2C[C@@H](O)[C@]3(CO)[C@H]4[C@H](O)C[C@]5(C)[C@@H](C6=CC(=O)OC6)CC[C@]5(O)[C@@H]4CC[C@]3(O)C2)[C@H](O)[C@H](O)[C@H]1O [OUABAIN] = > 30 µM
• CC(CN(C)C)CN1c2ccccc2CCc2ccccc21 (stereo not drawn) [TRIMIPRAMINE] = 8.9 µM
• O=P1(N(CCCl)CCCl)NCCCO1 (stereo not drawn) [CYCLOPHOSPHAMIDE ANHYDROUS] = > 30 µM
• O=C(O[C@H]1C[N+]2(CCCOc3ccccc3)CCC1CC2)C(O)(c1cccs1)c1cccs1 [ACLIDINIUM BROMIDE] = 0.43 µM
• CCN1C(=O)NC(c2ccccc2)C1=O (stereo not drawn) [ETHOTOIN] = > 30 µM
• CCC1(CC)C(=O)NC(=O)N(C)C1=O [METHARBITAL] = > 30 µM
• CC(C)(N)Cc1ccccc1 [PHENTERMINE] = > 30 µM
• CN(C)CCOCC(=O)NC12CC3CC(CC(C3)C1)C2 [TROMANTADINE] = > 30 µM
• CCCCOC(=O)C(=O)Nc1cccc(-c2nnn[nH]2)c1 [TAZANOLAST] = > 30 µM
• CC1=C(C(=O)O)N2C(=O)[C@@H](NC(=O)[C@H](N)C3=CCC=CC3)[C@H]2SC1 [CEPHRADINE] = > 30 µM
• NCC1(CC(=O)O)CCCCC1 [GABAPENTIN] = > 30 µM

All figures here come from ChEMBL document CHEMBL5291721.
